System: NCI-H1437
Assay: relative viability (nuclei count vs DMSO), 5 days (fraction); higher = more cells survive
Conditions: first compound 0.1265 µM
Assign relative viability to each entry below.
Please give the numeric answer without any surrounding text.

Task: Give the measured relative viability of C[C@@H]1CN(CC(=O)Nc2ccc3c(c2)Cc2cccc(-c4cc(=O)cc(N5CCOCC5)o4)c2S3)C[C@H](C)O1 + CS(=O)(=O)N1CCN(Cc2cc3nc(-c4cccc5[nH]ncc45)nc(N4CCOCC4)c3s2)CC1 [Pictilisib] (partner 1 µM) .
Output: 0.45

Task: What about this molecule? C[C@@H]1CN(CC(=O)Nc2ccc3c(c2)Cc2cccc(-c4cc(=O)cc(N5CCOCC5)o4)c2S3)C[C@H](C)O1 + Cc1nc(Nc2ncc(C(=O)Nc3c(C)cccc3Cl)s2)cc(N2CCN(CCO)CC2)n1 [Dasatinib] (partner 0.075 µM)
Output: 0.34

Task: What about this molecule? COc1cc(N2CCC(C(N)=O)CC2)ccc1Nc1nc(N)c(Cl)c(Nc2ccccc2S(=O)(=O)C(C)C)n1 [HG-5-88-01] + Cc1nc(Nc2ncc(C(=O)Nc3c(C)cccc3Cl)s2)cc(N2CCN(CCO)CC2)n1 [Dasatinib] (partner 0.075 µM)
Output: 0.306

Task: What about this molecule? COc1cc(N2CCC(C(N)=O)CC2)ccc1Nc1nc(N)c(Cl)c(Nc2ccccc2S(=O)(=O)C(C)C)n1 [HG-5-88-01] + CC(C)C[C@H](NC(=O)[C@H](Cc1ccccc1)NC(=O)c1cnccn1)B(O)O [Bortezomib] (partner 0.002 µM)
Output: 0.477

Task: What about this molecule? Clc1ccc(Nc2nnc(Cc3ccncc3)c3ccccc23)cc1 [Vatalanib] + CS(=O)(=O)CCNCc1ccc(-c2ccc3ncnc(Nc4ccc(OCc5cccc(F)c5)c(Cl)c4)c3c2)o1 [Lapatinib] (partner 2 µM)
Output: 0.779

----------
Test system: NCI-H1648
Experiment: relative viability (nuclei count vs DMSO), 5 days (fraction); higher = more cells survive
Conditions: first compound 0.1265 µM
property: relative viability
Please give the numeric answer without any surrounding text.

Task: Give the measured relative viability of C[C@@H]1CN(CC(=O)Nc2ccc3c(c2)Cc2cccc(-c4cc(=O)cc(N5CCOCC5)o4)c2S3)C[C@H](C)O1 + CC(=O)Nc1cccc(-n2c(=O)n(C3CC3)c(=O)c3c(Nc4ccc(I)cc4F)n(C)c(=O)c(C)c32)c1 [Trametinib] (partner 0.02 µM) .
Output: 0.435

Task: What about this compound? C[C@@H]1CN(CC(=O)Nc2ccc3c(c2)Cc2cccc(-c4cc(=O)cc(N5CCOCC5)o4)c2S3)C[C@H](C)O1 + O=C(CCCCCCC(=O)Nc1ccccc1)NO [Vorinostat] (partner 1 µM)
Output: 0.605

Task: What about this compound? C[C@@H]1CN(CC(=O)Nc2ccc3c(c2)Cc2cccc(-c4cc(=O)cc(N5CCOCC5)o4)c2S3)C[C@H](C)O1 + COc1cccc2cc(-c3nc([C@H]4CC[C@H](C(=O)O)CC4)n4ncnc(N)c34)[nH]c12 [OSI-027] (partner 0.5 µM)
Output: 0.258

Task: What about this compound? C[C@@H]1CN(CC(=O)Nc2ccc3c(c2)Cc2cccc(-c4cc(=O)cc(N5CCOCC5)o4)c2S3)C[C@H](C)O1 + Cc1cc(Nc2cc(N3CCN(C)CC3)nc(Sc3ccc(NC(=O)C4CC4)cc3)n2)n[nH]1 [Tozasertib] (partner 0.1 µM)
Output: 0.421

Task: What about this compound? Clc1ccc(Nc2nnc(Cc3ccncc3)c3ccccc23)cc1 [Vatalanib] + NC(=O)Nc1cc(-c2cccc(F)c2)sc1C(=O)N[C@H]1CCCNC1 [AZD7762] (partner 0.2 µM)
Output: 0.632

Task: What about this compound? COc1cc(N2CCC(C(N)=O)CC2)ccc1Nc1nc(N)c(Cl)c(Nc2ccccc2S(=O)(=O)C(C)C)n1 [HG-5-88-01] + NC(=O)Nc1cc(-c2cccc(F)c2)sc1C(=O)N[C@H]1CCCNC1 [AZD7762] (partner 0.2 µM)
Output: 0.624

Task: What about this compound? COc1cc(N2CCC(C(N)=O)CC2)ccc1Nc1nc(N)c(Cl)c(Nc2ccccc2S(=O)(=O)C(C)C)n1 [HG-5-88-01] + CC(=O)c1c(C)c2cnc(Nc3ccc(N4CCNCC4)cn3)nc2n(C2CCCC2)c1=O [Palbociclib] (partner 0.5 µM)
Output: 0.27

Task: What about this compound? Clc1ccc(Nc2nnc(Cc3ccncc3)c3ccccc23)cc1 [Vatalanib] + Nc1ncn([C@H]2C[C@H](O)[C@@H](CO)O2)c(=O)n1 [Decitabine] (partner 2 µM)
Output: 0.462

Task: What about this compound? COc1cc(N2CCC(C(N)=O)CC2)ccc1Nc1nc(N)c(Cl)c(Nc2ccccc2S(=O)(=O)C(C)C)n1 [HG-5-88-01] + Nc1nc2[nH]cc(CCc3ccc(C(=O)N[C@@H](CCC(=O)O)C(=O)O)cc3)c2c(=O)[nH]1 [Pemetrexed] (partner 0.2 µM)
Output: 0.719

FYI, the data here is from the supplement of paper PMC10307832.
